System: NCI-H23
TEST NAME: NCI tumour cell line growth inhibition, 48 h
Activity calls are given as the source filed them. Rule as the data show it: active = GI50 up to about 1.1 µM and inactive = higher.
MEASUREMENT LABEL: GI50

Query :: # query: GI50 of entry Clc1ccc(OCc2nnc3n2N=C(c2ccccc2)CS3)c(Cl)c1
Result :: 5.66 µM (inactive)

Query :: Similarly, C/C=C\C(C)=C/C(C)C(=O)CC(O)CC1CC(=O)NC(=O)C1 (stereo not given) ?
Result :: 23.7 µM (inactive)

Query :: Repeat for the following compound: CN(C)CCCCN1c2ccccc2Sc2cc(N=[N+]=[N-])ccc21
Result :: 9.66 µM (inactive)

Query :: And the next one, O=C(c1ccc2ccccc2c1)C1S(=O)(=O)OCCOS1(=O)=O ?
Result :: > 100 µM (inactive)

Query :: Next up: CCCn1c(CN(Cc2nc3ccccc3n2CCC)Cc2nc3ccccc3n2CCC)nc2ccccc21
Result :: 5.11 µM (inactive)

Query :: Same lookup for CC1=CP(=O)(OC(C)C)C=C(C)C1=C(Cl)Cl (stereo not given) , please.
Result :: 52.7 µM (inactive)

Query :: Would you mind doing C[N+]12C=CC=C1C(N1CCCC1)c1scc(-c3ccc(Br)cc3)c12 (stereo not given) as well?
Result :: 3.49 µM (inactive)

Query :: Same lookup for Fc1ccccc1-c1nn2c(C34CC5CC(CC(C5)C3)C4)nnc2s1 , please.
Result :: > 100 µM (inactive)

Query :: Now the compound C#CCOC(=O)C=[N+]=[N-]
Result :: > 10 µM (inactive)

Query :: // same read-out, input: C#CC(O)/C=C/C(O)CCCC(O)CC#CC(O)C#CC(O)CCCC(O)/C=C/CCCC(=O)CCCCCCCCCCCCCCCC(O)C(O)C#CC(=O)O (stereo not given)
Result :: > 50 µM (inactive)

====

Test system: MCF7
TEST NAME: NCI tumour cell line growth inhibition, 48 h
The source made the active and inactive calls. Cut-off read from the data, not from the text of the source: active = GI50 up to about 1.1 µM and inactive = higher.
Can you tell me GI50 for the items I'm about to list?

Query :: Entry COc1cc(C2S/C(=C/c3ccccc3)C(=O)N2Cc2ccccc2)cc(OC)c1OC (centres undefined) : reported GI50 = ?
Result :: 61.1 µM (inactive)

Query :: Let us now turn to O=C(CN1CCCCC1)CC(O)(C(F)(F)F)C(F)(F)F
Result :: > 100 µM (inactive)

Query :: Another compound to look at: Cc1csc2[n+]1C(=O)/C(=C\c1ccc([N+](=O)[O-])cc1)S2
Result :: 32.7 µM (inactive)

Query :: Try this compound next: O=C1C[C@H](Sc2ccccc2)C2(OCCO2)[C@H]2ON3CCC[C@@H]3[C@@H]12
Result :: 1.12 µM (inactive)

Query :: What do you have for NCCCNc1ccc2c(c1)[n+]([O-])c1ccccc1[n+]2[O-] ?
Result :: 13.9 µM (inactive)

Query :: Entry to check: CCOC(=O)CC(=O)NC1CC2CCC1(C)C2(C)C (centres undefined)
Result :: > 100 µM (inactive)

Query :: Then what about the compound NC1=Nc2ccccc2Sc2nnc(-c3ccc(Cl)cc3)n21 ?
Result :: > 100 µM (inactive)

Query :: Field entry: CC1=CC[C@](C)(O)[C@@]2(C)CC[C@H]3C(=C(C)C)C(=O)C[C@]3(C)C[C@H]12
Result :: 31.3 µM (inactive)

Query :: What do you get for CCNC1=C(NC(=O)c2ccccc2)C(=O)c2ccccc2C1=O ?
Result :: 32.1 µM (inactive)

Query :: And then O=S1(=O)CS(=O)(=O)OCCCO1 , what is it?
Result :: 97.1 µM (inactive)

Query :: Try this compound too: O=C1CC2(CCNCC2)C(=O)N1N1CCCC1
Result :: > 100 µM (inactive)

Query :: Same again, this time with O=C(CCn1ccnc1[N+](=O)[O-])NCCCn1ccnc1[N+](=O)[O-]
Result :: > 100 µM (inactive)

Query :: Now consider Cc1cccc(Br)[n+]1[O-] .
Result :: > 100 µM (inactive)

Query :: // query: O=C1c2cc([N+](=O)[O-])ccc2-c2cccc(F)c21
Result :: 31.3 µM (inactive)

Query :: Cool, now O=C(O)c1nc2ccc(C(F)(F)F)cc2nc1NCc1ccc(F)cc1
Result :: 22.9 µM (inactive)

Query :: Also check CCC1=C(C)C(=O)N/C1=C\c1[nH]c(C)c([C@H](C)CCN)c1C
Result :: 15.5 µM (inactive)

Query :: Try this compound next: N=C(N)N/N=C/c1c(-c2ccccc2)nc2ccn3c(/C=N/N=C(N)N)c(-c4ccccc4)nc3n12
Result :: 40.2 µM (inactive)

Query :: Can you handle N#CC1=C(N)OC2=C(CCCc3ccc([N+](=O)[O-])cc32)C1c1ccccc1 (centres undefined) next?
Result :: 3.45 µM (inactive)

Query :: How about O=C1/C(=C/c2cccc(O)c2)COc2ccccc21 ?
Result :: 3.63 µM (inactive)
